AC50 reference
- TARGET OR SYSTEM: Alpha-2A adrenergic receptor (Homo sapiens); note: assay procedure not described here
- Sequence (P08913 whole entry): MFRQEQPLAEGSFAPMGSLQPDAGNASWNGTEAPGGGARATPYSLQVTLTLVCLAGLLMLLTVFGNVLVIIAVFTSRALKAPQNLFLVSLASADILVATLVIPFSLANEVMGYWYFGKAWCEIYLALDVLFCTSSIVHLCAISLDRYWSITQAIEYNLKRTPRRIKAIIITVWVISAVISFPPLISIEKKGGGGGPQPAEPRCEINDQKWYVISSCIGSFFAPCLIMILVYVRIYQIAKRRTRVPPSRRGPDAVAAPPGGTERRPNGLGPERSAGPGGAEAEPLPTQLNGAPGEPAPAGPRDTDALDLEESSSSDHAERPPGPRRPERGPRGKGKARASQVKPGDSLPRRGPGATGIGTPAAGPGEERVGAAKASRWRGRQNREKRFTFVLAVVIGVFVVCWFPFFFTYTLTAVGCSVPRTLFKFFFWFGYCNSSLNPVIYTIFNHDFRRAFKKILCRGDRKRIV
- Format: functional, cell-based
PROPERTY: AC50

* O=S1(=O)CCN(CN2CCS(=O)(=O)NC2)CN1 [TAUROLIDINE] | > 30 µM
* CC(O)(CS(=O)(=O)c1ccc(F)cc1)C(=O)Nc1ccc(C#N)c(C(F)(F)F)c1 (centres undefined) [BICALUTAMIDE] | > 10 µM
* CNC(=C[N+](=O)[O-])NCCSCc1csc(CN(C)C)n1 [NIZATIDINE] | > 10 µM
* CCC1(c2ccc(N)cc2)CCC(=O)NC1=O (centres undefined) [AMINOGLUTETHIMIDE] | > 30 µM
* C[N+](C)(C)CCOP(=O)(O)OP(=O)([O-])OC[C@H]1O[C@@H](n2ccc(N)nc2=O)[C@H](O)[C@@H]1O [CITICOLINE] | > 30 µM
* Clc1ccc(Cn2c(CN3CCCC3)nc3ccccc32)cc1 [CLEMIZOLE] | > 10 µM
* CCCN1CCCC[C@H]1C(=O)Nc1c(C)cccc1C [ROPIVACAINE] | > 30 µM
* Cc1cc(C)nc(NS(=O)(=O)c2ccc(N)cc2)n1 [SULFAMETHAZINE] | > 10 µM
* CCCN(CCC)S(=O)(=O)c1ccc(C(=O)O)cc1 [PROBENECID] | > 10 µM

* * *

- TARGET OR SYSTEM: Prostaglandin G/H synthase 1 (Homo sapiens, UniProt P23219); note: assay procedure not described here
- Sequence (P23219 whole entry): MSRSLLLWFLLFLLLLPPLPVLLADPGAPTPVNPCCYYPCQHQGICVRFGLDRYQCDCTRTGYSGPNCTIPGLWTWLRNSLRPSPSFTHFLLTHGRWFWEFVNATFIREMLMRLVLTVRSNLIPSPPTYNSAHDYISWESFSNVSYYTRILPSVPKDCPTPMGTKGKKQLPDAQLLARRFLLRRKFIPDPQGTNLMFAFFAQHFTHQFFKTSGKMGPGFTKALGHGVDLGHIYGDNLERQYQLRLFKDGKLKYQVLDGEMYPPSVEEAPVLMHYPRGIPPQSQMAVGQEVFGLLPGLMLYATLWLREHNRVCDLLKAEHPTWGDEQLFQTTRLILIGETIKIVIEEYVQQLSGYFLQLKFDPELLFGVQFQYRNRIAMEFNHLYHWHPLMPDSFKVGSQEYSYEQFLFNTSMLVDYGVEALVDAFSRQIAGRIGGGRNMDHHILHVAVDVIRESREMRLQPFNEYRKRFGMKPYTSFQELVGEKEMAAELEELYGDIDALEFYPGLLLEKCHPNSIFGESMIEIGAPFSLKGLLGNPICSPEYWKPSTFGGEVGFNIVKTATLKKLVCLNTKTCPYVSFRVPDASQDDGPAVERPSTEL
- Format: functional
AC50 reference
PROPERTY: AC50

• Cc1ccccc1C(=O)Nc1ccc(C(=O)N2CCCC(O)c3cc(Cl)ccc32)c(C)c1 (centres undefined) = > 30 µM
• C[Se]CC[C@H](N)C(=O)O = > 30 µM
• Cc1cc(C2CCCCC2)n(O)c(=O)c1 = > 30 µM
• CCCSc1nc(N[C@@H]2C[C@H]2c2ccc(F)c(F)c2)c2nnn([C@@H]3C[C@H](OCCO)[C@@H](O)[C@H]3O)c2n1 = 26.2 µM
• O=C(NNCS(=O)(=O)O)c1ccncc1 [METHANIAZIDE] = > 30 µM
• CC1(C)S[C@@H]2[C@H](/N=C/N3CCCCCC3)C(=O)N2[C@H]1C(=O)O = > 30 µM
• CCCc1nc2c(C)cc(-c3nc4ccccc4n3C)cc2n1Cc1ccc(-c2ccccc2C(=O)O)cc1 = > 30 µM
• O=C(O)P(=O)(O)O = > 30 µM
• COc1cccc(C(=O)CCN[C@@H](C)[C@H](O)c2ccccc2)c1 = > 30 µM
• N=C(N)N/N=C/c1c(Cl)cccc1Cl = > 30 µM
• O=C(CCC/C=C\C[C@@H]1[C@@H](CC[C@@H](O)CCc2ccccc2)[C@H](O)C[C@@H]1O)OCCCCO[N+](=O)[O-] = 13.5 µM
• CC(=O)NO [ACETOHYDROXAMIC ACID] = > 30 µM
• CC(=O)O[C@H]1Cc2ccccc2N(C(N)=O)c2ccccc21 [ESLICARBAZEPINE ACETATE] = > 30 µM
• O=S1(=O)CCN(CN2CCS(=O)(=O)NC2)CN1 = > 30 µM
• Cc1cc(=O)[nH]c(=S)[nH]1 = > 30 µM
• CC(O)(P(=O)(O)O)P(=O)(O)O = > 30 µM
• COc1ccc2[nH]c([S+]([O-])Cc3ncc(C)c(OC)c3C)nc2c1 (centres undefined) = > 30 µM
• CC1(C)O[C@@H]2C[C@H]3[C@@H]4C[C@H](F)C5=CC(=O)C=C[C@]5(C)[C@@]4(F)[C@@H](O)C[C@]3(C)[C@]2(C(=O)CO)O1 [FLUOCINOLONE ACETONIDE] = > 30 µM
• NNCCc1ccccc1 = 0.5 µM
